# system-name: GST-tagged truncated human mutant G2019S LRRK2 (Homo sapiens, UniProt Q5S007, G2019S)
# Construct: GST-tagged truncated human mutant G2019S LRRK2; purchased Life Technologies Corporation (Carlsbad, CA)
# Sequence (Q5S007 970-2527 G2019S limits assumed): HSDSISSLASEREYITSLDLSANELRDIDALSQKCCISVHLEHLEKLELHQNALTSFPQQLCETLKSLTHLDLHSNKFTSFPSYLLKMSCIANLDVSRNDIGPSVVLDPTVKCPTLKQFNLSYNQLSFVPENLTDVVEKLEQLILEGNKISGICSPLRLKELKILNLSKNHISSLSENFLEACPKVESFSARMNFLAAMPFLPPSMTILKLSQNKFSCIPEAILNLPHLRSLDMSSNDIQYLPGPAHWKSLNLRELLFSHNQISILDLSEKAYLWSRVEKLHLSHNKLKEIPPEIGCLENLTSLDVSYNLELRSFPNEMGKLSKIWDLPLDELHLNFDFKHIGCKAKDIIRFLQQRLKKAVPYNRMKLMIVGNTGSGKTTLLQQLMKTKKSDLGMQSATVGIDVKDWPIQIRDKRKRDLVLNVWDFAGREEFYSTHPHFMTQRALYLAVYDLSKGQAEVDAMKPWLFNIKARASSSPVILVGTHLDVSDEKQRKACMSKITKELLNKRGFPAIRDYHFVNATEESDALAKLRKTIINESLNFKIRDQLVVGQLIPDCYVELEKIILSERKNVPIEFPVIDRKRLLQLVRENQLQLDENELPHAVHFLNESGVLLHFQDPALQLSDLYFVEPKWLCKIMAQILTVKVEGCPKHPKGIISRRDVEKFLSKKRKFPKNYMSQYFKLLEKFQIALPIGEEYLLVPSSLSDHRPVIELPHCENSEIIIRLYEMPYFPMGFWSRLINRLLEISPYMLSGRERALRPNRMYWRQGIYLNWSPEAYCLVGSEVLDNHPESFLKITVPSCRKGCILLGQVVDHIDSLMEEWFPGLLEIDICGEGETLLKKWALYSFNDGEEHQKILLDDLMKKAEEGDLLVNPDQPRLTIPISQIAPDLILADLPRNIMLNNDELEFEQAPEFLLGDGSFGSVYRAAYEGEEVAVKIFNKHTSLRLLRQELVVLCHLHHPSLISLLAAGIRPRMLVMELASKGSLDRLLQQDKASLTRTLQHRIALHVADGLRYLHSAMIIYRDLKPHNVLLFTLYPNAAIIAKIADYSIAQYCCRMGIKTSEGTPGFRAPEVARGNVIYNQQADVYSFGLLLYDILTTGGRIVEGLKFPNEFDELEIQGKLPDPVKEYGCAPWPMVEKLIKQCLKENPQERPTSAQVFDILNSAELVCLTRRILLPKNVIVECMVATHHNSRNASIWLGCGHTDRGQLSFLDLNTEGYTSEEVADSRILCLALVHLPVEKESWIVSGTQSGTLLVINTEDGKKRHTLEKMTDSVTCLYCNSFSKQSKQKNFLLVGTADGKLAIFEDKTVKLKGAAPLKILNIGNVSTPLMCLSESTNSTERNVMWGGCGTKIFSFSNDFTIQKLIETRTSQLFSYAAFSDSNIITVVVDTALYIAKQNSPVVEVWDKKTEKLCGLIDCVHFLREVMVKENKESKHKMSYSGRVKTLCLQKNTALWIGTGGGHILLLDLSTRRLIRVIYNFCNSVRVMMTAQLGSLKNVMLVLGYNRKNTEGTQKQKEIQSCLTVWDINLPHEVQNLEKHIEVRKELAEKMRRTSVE
# test-description: LRRK2 G2019S Km ATP LanthaScreen assay
# Assay type: biochemical
# condition-label: 134 μM ATP (Km ATP), LRRKtide substrate, mean of several tests, read-out: LRRK2 pIC50 (converted)
measured-property: IC50 (nM)
One number for each entry, in nM.

Sample records with IC50:
CC1(O)CCN(c2cc3cc(NC(=O)C4CC4)ncc3cc2Cl)CC1 [Ex-4.2] : 10.5
CC1(N2CCN(c3cc4cc(NC(=O)C5CC56CCOCC6)ncc4cc3Cl)CC2)CCOC1 (single isomer, unassigned) [Ex-5.11] : 2.45
COC1COCC1N1CCN(c2cc3cc(NC(=O)C4CC45CCOCC5)ncc3cc2Cl)CC1 (single isomer, unassigned) [Ex-5.10] : 38

Go through the items and report each one's IC50.
1. COC1CC(C(=O)Nc2cc3cc(N4CCN(C5(C)COCC5O)CC4)c(Cl)cc3cn2)C1 (single isomer, unassigned) [Ex-7.2]
2. CCC1C(C(=O)Nc2cc3cc(N4CCN(C5(C)COCC5F)CC4)c(Cl)cc3cn2)C1c1ccn(C)n1 (single isomer, unassigned) [Ex-10.50]
3. Cc1cc2cnc(NC(=O)C3CC34CCOCC4)cc2cc1N1CCN(C2(C)COCC2O)CC1 (single isomer, unassigned) [Ex-6.1]
4. O=C(Nc1cc2cc(N3C(=O)C4CCC3C4)ccc2cn1)C1CC1 (single isomer, unassigned) [Ex-5.2]

Result:
0.977
0.0813
0.355
25.7

###

Record form. Attribute: IC50. Fill in for each entry.
# system-name: GST-tagged truncated human mutant G2019S LRRK2 (Homo sapiens, UniProt Q5S007, G2019S)
# Construct: GST-tagged truncated human mutant G2019S LRRK2; purchased Life Technologies Corporation (Carlsbad, CA)
# test-description: LRRK2 G2019S Km ATP LanthaScreen assay
# Type: biochemical
# condition-label: 134 μM ATP (Km ATP), LRRKtide substrate, mean of several tests, read-out: LRRK2 pIC50 (converted)
Numbers only, in nM.

Sample records with IC50:
CC1(N2CCN(c3cc4cc(NC(=O)C5CC56CC6)ncc4cc3Cl)CC2)COCC1O (single isomer, unassigned) [Ex-2.14] : 0.468
Cc1cc2cnc(NC(=O)C3CC3c3cnn(C)c3C(F)(F)F)cc2cc1N1CCN(C2(C)CCOC2)CC1 (single isomer, unassigned) [Ex-10.33] : 4.79
CC1C(C(=O)Nc2cc3cc(N4CCN(C5(C)CCOC5)CC4)c(Cl)cc3cn2)C1c1cnn(C)c1 (single isomer, unassigned) [Ex-9.8] : 4.9
Cc1cc2cnc(NC(=O)C3C(C)C3c3cnn(C)c3)cc2cc1N1CCN(C2(C)CCOC2)CC1 (single isomer, unassigned) [Ex-9.15] : 0.316
Cc1cc2cnc(NC(=O)C3CC3c3ccccn3)cc2cc1N1CCN(C2(C)COCC2F)CC1 (single isomer, unassigned) [Ex-6.13] : 0.0813

Problem: Returns the measured IC50 for the input compound. Input: CC1(N2CCN(c3cc4cc(NC(=O)C5C6COCC65)ncc4cc3Cl)CC2)COCC1O (single isomer, unassigned) [Ex-1.9]
Result: 0.794

###

# system-name: GST-tagged truncated human mutant G2019S LRRK2 (Homo sapiens, UniProt Q5S007, G2019S)
# Construct: GST-tagged truncated human mutant G2019S LRRK2; purchased Life Technologies Corporation (Carlsbad, CA)
# test-description: LRRK2 G2019S Km ATP LanthaScreen assay
# Type: biochemical
# condition-label: 134 μM ATP (Km ATP), LRRKtide substrate, mean of several tests, read-out: LRRK2 pIC50 (converted)
Record form. Attribute: IC50. Fill in for each entry.
One number for each entry, in nM.

CC1(N2CCN(c3cc4cc(NC(=O)C5CCCOC5)ncc4cc3Cl)CC2)COCC1O (single isomer, unassigned) [Ex-10.4] : 1.38
Cc1cc2cnc(NC(=O)C3CC3c3ccccn3)cc2cc1N1CCN(C2(C)CCOC2)CC1 (single isomer, unassigned) [Ex-9.16] : 1.12
CC1(N2CCN(c3cc4cc(NC(=O)C5CC5C(F)F)ncc4cc3Cl)CC2)COCC1F (single isomer, unassigned) [Ex-10.78] : 0.0813

Go through the items and report each one's IC50.
1. CC1(N2CCN(c3cc4cc(NC(=O)C5CCC56CCOCC6)ncc4cc3Cl)CC2)COCC1O (single isomer, unassigned) [Ex-1.28]
2. O=C(Nc1cc2cc(N3CCN(C4COCC4O)CC3)c(Cl)cc2cn1)C1CC12CCOCC2 (single isomer, unassigned) [Ex-2.5]
3. O=C(Nc1cc2cc(N3CCN(C4COCC4O)CC3)c(Cl)cc2cn1)C1CC12CCOCC2 (single isomer, unassigned) [Ex-2.6]
4. Cc1cc2cnc(NC(=O)C3CC34CCOCC4)cc2cc1N1CCN(C2(C)COCC2O)C[C@@H]1C (single isomer, unassigned) [Ex-15.2]
5. O=C(Nc1cc2cc(N3C(=O)C4CCC3C4)ccc2cn1)C1CC1 (single isomer, unassigned) [Ex-5.1]
6. CC1(N2CCN(c3cc4cc(NC(=O)C5CCC56CCOCC6)ncc4cc3Cl)CC2)COCC1O (single isomer, unassigned) [Ex-1.27]
7. Cc1cc2cnc(NC(=O)C3CC34CCOC4)cc2cc1N1CCN(C2(C)COCC2O)CC1 (single isomer, unassigned) [Ex-6.2]
8. C[C@H]1CN(c2cc3cc(NC(=O)C4CC45CCOCC5)ncc3cc2Cl)CCN1C1(C)COCC1O (single isomer, unassigned) [Ex-2.20]

Result:
1: 12; 2: 41.7; 3: 3.09; 4: 0.0813; 5: 9.55; 6: 1.29; 7: 1.38; 8: 0.178

###

# system-name: GST-tagged truncated human mutant G2019S LRRK2 (Homo sapiens, UniProt Q5S007, G2019S)
# Construct: GST-tagged truncated human mutant G2019S LRRK2; purchased Life Technologies Corporation (Carlsbad, CA)
# test-description: LRRK2 G2019S Km ATP LanthaScreen assay
# Assay type: biochemical
# condition-label: 134 μM ATP (Km ATP), LRRKtide substrate, mean of several tests, read-out: LRRK2 pIC50 (converted)
Could you mark each record Criterion met if its IC50 falls strictly under 8 nM, and Criterion not met if it equals or exceeds it?

CC1COC(=O)N1c1ccc2cnc(NC(=O)C3CC3)cc2c1 (single isomer, unassigned) [Ex-4.1] : Criterion met
Cn1ncc(C2CC2C(=O)Nc2cc3cc(N4CCN(C5(C)CCOC5)CC4)c(Cl)cc3cn2)c1C(F)(F)F (single isomer, unassigned) [Ex-10.25] : Criterion met
CC1C(C(=O)Nc2cc3cc(N4CCN(C5(C)CCOC5)CC4)c(Cl)cc3cn2)C1c1cnn(C)c1 (single isomer, unassigned) [Ex-9.7] : Criterion met

Problem: In the record for CC1(N2CCN(c3cc4cc(NC(=O)C5CC56CCC(F)(F)CC6)ncc4cc3Cl)CC2)COCC1O (single isomer, unassigned) [Ex-1.19] , is IC50 less than 8 nM?
Result: Criterion met

Problem: Can you check CC1(N2CCN(c3cc4cc(NC(=O)C5CC56CCC(F)(F)CC6)ncc4cc3Cl)CC2)COCC1O (single isomer, unassigned) [Ex-1.20] next?
Result: Criterion not met

Problem: Can you check CC12CC(C(=O)Nc3cc4cc(N5CCN(C6(C)COCC6O)CC5)c(Cl)cc4cn3)(CO1)C2 (single isomer, unassigned) [Ex-2.18] next?
Result: Criterion not met

Problem: Can you check CC1(N2CCN(c3cc4cc(NC(=O)C5CC56CCCOC6)ncc4cc3Cl)CC2)COCC1O (single isomer, unassigned) [Ex-1.12] next?
Result: Criterion met

Problem: Can you check CC1(N2CCN(c3cc4cc(NC(=O)C5CC56CCOCC6)ncc4cc3Cl)CC2)CCOC1 (single isomer, unassigned) [Ex-5.14] next?
Result: Criterion not met

Problem: Can you check CC1(N2CCN(c3cc4cc(NC(=O)C5CC56CCC6)ncc4cc3Cl)CC2)COCC1O (single isomer, unassigned) [Ex-1.7] next?
Result: Criterion met

Problem: Can you check CC1(C)CC2(CCO1)CC2C(=O)Nc1cc2cc(N3CCN(C4(C)COCC4O)CC3)c(Cl)cc2cn1 (single isomer, unassigned) [Ex-7.3] next?
Result: Criterion met

Problem: Can you check CC1(N2CCN(c3cc4cc(NC(=O)C5CCCOC5)ncc4cc3Cl)CC2)COCC1O (single isomer, unassigned) [Ex-10.3] next?
Result: Criterion met

###

# system-name: GST-tagged truncated human mutant G2019S LRRK2 (Homo sapiens, UniProt Q5S007, G2019S)
# Construct: GST-tagged truncated human mutant G2019S LRRK2; purchased Life Technologies Corporation (Carlsbad, CA)
# test-description: LRRK2 G2019S Km ATP LanthaScreen assay
# Type: biochemical
# condition-label: 134 μM ATP (Km ATP), LRRKtide substrate, mean of several tests
Each entry gets f if its LRRK2 pIC50 stays under 8, and t if its LRRK2 pIC50 is 8 or above.

Cc1cc2cnc(NC(=O)C3CC3c3ccccn3)cc2cc1N1CCN(C2(C)COCC2F)CC1 (stereo not shown) [Ex-9.19] : t

Problem: Hi team, for Cc1cc2cnc(NC(=O)C3CC34CCOCC4)cc2cc1N1CCN(C2(C)COCC2O)[C@@H](C)C1 (stereo partly shown) [Ex-6.10] , is the recorded LRRK2 pIC50 at or above 8?
Result: t
